Listing: IC50 of selected molecules
- measured.target: DNA dC->dU-editing enzyme APOBEC-3G (Homo sapiens)
- Sequence (Q9HC16 whole entry): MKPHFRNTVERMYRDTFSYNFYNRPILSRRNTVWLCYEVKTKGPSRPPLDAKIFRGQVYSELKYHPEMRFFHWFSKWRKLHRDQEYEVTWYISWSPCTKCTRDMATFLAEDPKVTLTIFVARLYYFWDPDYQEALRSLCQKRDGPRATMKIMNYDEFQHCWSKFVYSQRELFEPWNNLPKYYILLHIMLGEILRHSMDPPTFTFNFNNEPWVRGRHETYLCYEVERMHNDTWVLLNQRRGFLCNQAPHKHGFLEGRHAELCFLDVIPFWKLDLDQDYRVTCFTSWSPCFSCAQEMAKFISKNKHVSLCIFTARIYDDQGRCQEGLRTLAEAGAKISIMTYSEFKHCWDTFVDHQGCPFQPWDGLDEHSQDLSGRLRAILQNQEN
- protocol.text: Dose Response confirmation of small molecule APOBEC3G DNA Deaminase Inhibitors via a fluorescence-based single-stranded DNA deaminase assay. [Related pubchem assays (depositor defined):AID493012, AID493028]
- Assay type: functional
Calls of active or inactive are those of the source.

Below are worked cases with known answers.
Cc1ccc(NC(=O)Cn2sc3nc(C)cc(C)c3c2=O)c(Cl)c1 = 4.88 µM (active)
C=C(C)C(=O)Nc1cccc(C2=NOC3(C2)C[C@@H](C(N)=O)N(C(=O)/C=C/CC)C3)c1 (stereo not given in full) = 6.06 µM (active)
Sc1nnc(NCCc2ccccc2)s1 = 1.2 µM (active)

Task: // returns reported IC50 for input Cc1ccc(/C=N/n2c(S)nnc2-c2cccnc2)s1
Output: 2 µM (active)

Task: Suppose we examine the molecule CCOC(=O)c1sc(N/N=C/c2ccccc2)nc1C ; what IC50 value has been reported?
Output: 40.4 µM (active)

* * *

The reader will find reported IC50 values listed item by item below.
- measured.target: Carboxy-terminal domain RNA polymerase II polypeptide A small phosphatase 1 (Homo sapiens, UniProt Q9GZU7)
- Sequence (Q9GZU7 whole entry): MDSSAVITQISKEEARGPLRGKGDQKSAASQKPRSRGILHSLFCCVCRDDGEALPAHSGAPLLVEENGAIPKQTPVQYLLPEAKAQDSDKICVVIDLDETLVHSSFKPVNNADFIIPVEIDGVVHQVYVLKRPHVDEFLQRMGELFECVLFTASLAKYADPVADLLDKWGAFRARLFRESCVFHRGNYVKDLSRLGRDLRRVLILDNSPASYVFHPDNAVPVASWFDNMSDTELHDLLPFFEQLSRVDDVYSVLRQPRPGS
- protocol.text: inhibitors of CTDSP1, concentration-response testing, biochemical assay, absorbance-based, actives from ultra-high-throughput screening (AID 540297)
- Assay type: functional
The source made the active and inactive calls.

CC(C)[C@H](NC(=O)Cc1ccccc1)C(=O)OCc1cc(=O)n2c(n1)sc1ccccc12 = 3.58 µM (active)
O=C1C2C(C(=O)N1/N=C/c1cc([N+](=O)[O-])c(O)cc1O)C1C=CC2C12CC2 (configuration not stated) = 4.9 µM (active)
O=C(O)CNC(=O)CC1SC(NNC2=NC(=O)CS2)=NC1=O (configuration not stated) = 5.27 µM (active)
COc1cc2ccccc2cc1C(=O)NC(=S)Nc1ccc(C(=O)O)cc1 = 4.12 µM (active)
C=C(C)C(=O)Nc1cccc(C2=NOC3(C2)C[C@@H](C(N)=O)N(C(=O)/C=C/CC)C3)c1 (some centres not stated) = 1.73 µM (active)
O=C(Nc1nccs1)c1cc(-c2ccco2)nc2ccccc12 = 3.98 µM (active)

Turning now to a further record.
Task: Request the reported IC50 associated with CN(C)c1cccc(/N=C2/C=C(N3CCOCC3)CC(C)(C)C2)c1
Output: 5.65 µM (active)

* * *

Catalogue of EC50 values
- measured.target: Zinc finger protein mex-5 (Caenorhabditis elegans)
- Sequence (Q9XUB2 whole entry): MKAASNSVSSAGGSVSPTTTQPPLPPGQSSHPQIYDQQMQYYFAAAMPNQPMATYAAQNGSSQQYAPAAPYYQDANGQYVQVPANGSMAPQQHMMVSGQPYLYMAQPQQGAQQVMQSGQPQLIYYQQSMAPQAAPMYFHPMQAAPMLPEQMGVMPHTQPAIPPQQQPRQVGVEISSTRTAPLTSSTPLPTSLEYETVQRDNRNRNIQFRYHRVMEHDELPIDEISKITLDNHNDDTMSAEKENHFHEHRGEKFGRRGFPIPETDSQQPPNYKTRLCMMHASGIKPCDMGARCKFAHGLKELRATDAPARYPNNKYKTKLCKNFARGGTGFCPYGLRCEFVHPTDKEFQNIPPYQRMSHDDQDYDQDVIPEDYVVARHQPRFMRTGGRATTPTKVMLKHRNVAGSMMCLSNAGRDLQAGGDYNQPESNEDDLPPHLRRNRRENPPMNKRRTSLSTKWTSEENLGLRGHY
- protocol.text: MEX-5/TCR-2 RNA interaction inhibitors, dose response, biochemical, C. elegans, fluorescence polarization (AID 1960)
Active and inactive are the calls of the source.

Check out these entries, answers already filled in.
COc1ccc(C2C(C#N)=C(N)OC3=C2C(=O)CCC3)cc1OC (stereo not given) = > 300 µM (not active)
O=C(O)c1ccc(-c2ccc(/C=C3\NC(=O)N(Cc4ccc(Cl)cc4)C3=O)o2)cc1Cl = 23.5 µM (active)
CCn1cc(C(=O)NCc2ccccn2)c(=O)c2cc(S(=O)(=O)N3CCCCC3)ccc21 = 102 µM (active)
COc1ccc(C(=O)Nc2cc(C(C)=O)c(/C=C/N(C)C)oc2=O)cc1 = 54.8 µM (active)
Oc1ccc(NC(=S)N=Nc2c(O)[nH]c3ccccc23)cc1 = 3.98 µM (active)

Task: // query EC50 value for entry Cc1nn(-c2ccccc2)c(N2CCCC2)c1/C=C1\N=C(c2ccc(F)cc2)OC1=O
Output: 56.7 µM (active)

Task: Value lookup for EC50; key = Cc1noc(/C=C/N(C)C)c1S(=O)(=O)N1CCC(C(=O)O)CC1
Output: > 300 µM (not active)

Task: What value of EC50 has been reported for the following compound? CC1(OC(=O)c2ccc(Cl)nc2)C(=O)C=C2C=C(C3CC3)OC=C2C1=O (stereo not given)
Output: 14.3 µM (active)

Task: Quick check: EC50 of CN1CC=C2C(C#N)=C(N)C(C#N)(C#N)[C@H](c3cccc(Cl)c3)C2C1 (stereo not given in full) ?
Output: 11.6 µM (active)

Task: Sample O=C1C([N+](=O)[O-])=C(O)c2cccc3cccc1c23 — what was its EC50?
Output: 9.23 µM (active)

# credit: ChEMBL document CHEMBL1201862
